# target.under.test: T1, elastase (purified from human sputum) (human, UniProt P08246 30-267)
# T1 construct: elastase, human, purified from sputum; the discussion speaks of it as a component of neutrophil azurophil granules (neutrophil elastase); source: bought: Molecular Innovations, purified from human sputum (SPR); bought: Elastin Products (enzyme assays)
# T1 sequence (looked up): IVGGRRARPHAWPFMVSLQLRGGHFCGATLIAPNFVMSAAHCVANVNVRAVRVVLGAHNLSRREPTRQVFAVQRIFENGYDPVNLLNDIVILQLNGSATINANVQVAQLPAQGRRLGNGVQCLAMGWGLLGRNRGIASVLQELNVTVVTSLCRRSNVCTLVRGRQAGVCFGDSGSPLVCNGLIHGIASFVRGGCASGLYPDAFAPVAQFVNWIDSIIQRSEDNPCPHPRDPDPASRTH
# experiment.description: enzyme inhibition assay (Ki from IC50 by Cheng and Prusoff); rSimukunin titrated against a constant concentration of enzyme, pre-incubated 5 min, fluorogenic peptidyl substrate 250 µM, 30°C; Ki calculated from the IC50 and the substrate's Km; estimated
# cond: both partners purified

>  <binder>
recombinant Simukunin (rSV-66) (natural protein, Simulium vittatum, UniProt B5M0W4 20-102, looked up, SV-66 (Simukunin), Kunitz family salivary protein of the black fly Simulium vittatum; full-length ORF without signal peptide was cloned; numbers count on: the mature protein; pET-30 Ek/LIC vector; The purified protein ran as a doublet; also called rSimukunin; WT rSimukunin; source: E. coli BL21 (DE3), purified (Ni-NTA, RP-HPLC)) QENVCNLPVDEGVCRALFKRFYYEPATDSCKEFYYGGCEGNGNRFKSKKECILKCQKNKQLIKTRKRKPKKTTKPPIPIISLD

>  <Ki>
~0.65 nM

$$$$
